- TEST_METHOD_NOTES: chemical genetic growth profiling, strain panel (AID 1159580);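 further: tested at 20 µM; growth read once vehicle control cultures reached saturation at 30 °C; 1 = growth at the plate median or of vehicle wells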
- CONDITION: S. cerevisiae deletion strains, growth OD, locus YML032C, strain rad52
Hit rate of the full screen: of about 5,500 compounds, about 2,000 (36%) were called active. Inconclusive results (about 18%) are left out. No stated cut-off is given here; in the data, active means normalized growth mostly below about 0.91 (no sharp cut-off); inconclusive means no clear call, values can overlap the other calls; inactive means mostly above about 0.92. Some of the results follow.
Classes to choose from: active, inactive

What did the test return for C[C@@H]1OC(O[C@H]2C(O[C@H]3CC[C@@]4(C)C(CC[C@]5(C)C4CC=C4C6CC(C)(C)CC[C@]6(C(=O)O)CC[C@]45C)[C@]3(C)CO)OC[C@H](O)[C@@H]2O)[C@H](O)[C@H](O)[C@H]1O (some centres undefined) ? active

Now the same for C=C/C(C)=C\CC1C(C)(O)CCC2C(C)(C)CCCC21C (centres undefined) active

----------
- TEST_METHOD_NOTES: chemical genetic growth profiling, strain panel (AID 1159580);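 further: tested at 20 µM; growth read once vehicle control cultures reached saturation at 30 °C; 1 = growth at the plate median or of vehicle wells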
- CONDITION: S. cerevisiae deletion strains, growth OD, locus YOL078W, strain AVO1
Among all 5,500 compounds or so, about 2,000 (36%) were called active. Roughly 18% stayed inconclusive and do not appear here. Cut-off read from the data, not from the text of the source: active = normalized growth mostly below about 0.91 (no sharp cut-off); inconclusive = no clear call, values can overlap the other calls; inactive = mostly above about 0.92. The list shows a part of the results.
Classes to choose from: active, inactive

Below, 3 molecules whose answers are already recorded.
In [3]: df
Out[3]:
                                smiles_repr     group
0        Cc1nc(-c2cccnc2)nc(NCc2ccccc2)c1Cl  inactive
1  O=C(N/N=C\c1cc(Br)ccc1O)c1ccccc1Oc1ccccc1  inactive
2  O=[N+]([O-])c1cnc(Sc2nnc(SCc3cccc(C(F)(F)F)c3)s2)s1    active

What did the test return for `OC1CCN(c2cc(C(F)(F)F)nc3cc(Cl)cc(Cl)c23)CC1` ? inactive

Now the same for `O=C(NCCNc1ncc(Cl)cc1C(F)(F)F)C(F)(F)Sc1ccccc1` inactive

Now the same for `Nc1ccccc1C(=O)N/N=C\c1cc(Br)ccc1O` inactive

----------
- TEST_METHOD_NOTES: chemical genetic growth profiling, strain panel (AID 1159580);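 further: tested at 20 µM; growth read once vehicle control cultures reached saturation at 30 °C; 1 = growth at the plate median or of vehicle wells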
- CONDITION: S. cerevisiae deletion strains, growth OD, locus YPL055C, strain LGE1, active compounds read low
About 2,000 (36%) of roughly 5,500 compounds were called active. About 18% were inconclusive and are not listed. Some of the results follow.
The label class 1 is reserved for normalized growth strictly under 1; class 0 covers values equal to or above it.

Below, 2 molecules whose answers are already recorded.
MOLECULE	GROUP
CC(C)=CCCC1(C)C=Cc2c(O)c3c(c(CC=C(C)C)c2O1)OC12C(=CC4CC1C(C)(C)OC2(C/C=C(/C)C(=O)O)C4O)C3=O (configuration not stated)	class 1
O=[N+]([O-])c1cnc(Sc2n[nH]c(-c3cccs3)n2)s1	class 1

In the record for `O=c1[nH]cc(F)c(=O)[nH]1` , is normalized growth less than 1? class 1

Now the same for `COC(=O)Nc1nc2ccc(Sc3ccccc3)cc2[nH]1` class 1

Now the same for `Cc1cc(C)cc(NC(=S)N2CCN(c3ncc(C(F)(F)F)cc3Cl)CC2)c1` class 0

Now the same for `O=C(Nc1ccc(Br)cc1Cl)C(Cl)(Cl)Cl` class 1

Now the same for `CNC(=O)O/N=C\C(C)(C)SC` class 0

Now the same for `CCOP(=S)(OCC)Oc1nc(Cl)c(Cl)cc1Cl` class 0

Now the same for `COC(=O)Nc1nc2ccc(C(=O)c3ccccc3)cc2[nH]1` class 1
